target: Env of HIV-1 strain 231965.c1 (HIV-1); assay: cell-based or functional assay
Quick list: neutralization IC50 per entry.

[
  {
    "binder": "γ22κ5 (antibody, V domains shown) VH: QIHLVQSGTEVKKPGSSVTVSCKAYGVNTFGLYAVNWVRQAPGQSLEYIGQIWRWKSSASHHFRGRVLISAVDLTGPSPPISSLEIKNLTSDDTAVYFCTTTSTYDKWSGLHHDGVMAFSSWGQGTLISVSA VL: DIQMTQSPSTLSASTGDTVRISCRASQSITGNWVAWYQQRPGKAPRLLIYRGAALLGGVPSRFRGSAAGTDFTLTIGNLQAEDFGTFYCQQYDTYPGTFGQGTKVEVKR",
    "neutralization IC50, µg/mL": 0.69
  },
  {
    "binder": "γ3κ5 (antibody, V domains shown) VH: QIHLVQSGTEVKKPGSSVTVSCKAYGVNTFGLYAVSWVRQAPGQRLEYIGQIRRWKSSASHHFRGRVTVSAVDPTGSSPPISSLEIRDLTTDDTAVYFCTTTSTSDYWSGLHNERGTAFSSWGQGTLISVSA VL: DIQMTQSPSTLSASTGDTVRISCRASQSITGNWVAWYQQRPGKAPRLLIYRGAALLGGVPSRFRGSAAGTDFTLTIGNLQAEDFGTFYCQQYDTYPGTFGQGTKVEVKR",
    "neutralization IC50, µg/mL": 0.697
  },
  {
    "binder": "γ52κ3 (antibody, V domains shown) VH: QIHLVQSGTEVKKPGSSVTVSCKAYGVNTFGLYAVNWVRQAPGQSLEYIGQIWRWKSSASHHFRGRVLISAVDLTGSSPPISSLEIKNLTSDDTAVYFCTTTSTYDRWSGLHHDGVMAFSSWGQGTLISVSA VL: DIQMTQSPSTLSASIGDTVRISCRASQSITGNWLAWYHQRPGKAPRLLIYRGSRLLGGVPSRFSGSAAGTDFTLTIANLQAEDFGTFYCQQYDTYPGTFGQGTKVEVKR",
    "neutralization IC50, µg/mL": 6.59
  }
]
